Assay: soluble on expression in E. coli; label from the status in PepcDB or PDB records
reported.metric: soluble on expression in E. coli

MGSDKIHHHHHHMSRLAHNKALPYKIIVDLSFHRTRLPSDVSSLIKFEQRPAIINIHGLLGSHVMFHSLNKLLSRKLDADIFSVDVRNHGISPKAIPYDYTTLTNDLIYFIETHIGLERPIYLLGFSMGGKIALLTTLYKNINIRKCISIDLPPYETPELDPMILQNYDLIMRIIRRDVKILRGSPSWQKKVLELFKSLECNKRKCGGAVALYFANGFLSVKSNNVHQAQLHYEQQQHDPYINYSMPLSSMPNLLDEVKKWPDLSNQRDFFQKGTASRKVLFMKGLQSNFINNDYSLLRYNFPCADVREFNTGHNLLLENPEDSFKCILNFFAEETLDFE | not soluble
MQSTPKPFDIEQPSLRVFLPAPELATGRAVVACPGGGYSGLAVNHEGYDWAPYFNKQGIALIVLKYRMPKGDRTLPISDAEAAMKMVRDSADVWNLNPNDIGIMGSSAGGHLASTIATHAPEALRPNFQILFYPVITMDKSFTHMGSHDNLLGKDASADLEKEFSNEKQVTKETPRAFIVYSDDDKVVPPANGVNYYLALNKKGVPSVLHIYPTGGHGWGIREDFLEHHHHHH | not soluble
MGSDKIHHHHHHLRLFGTKDEQLFMLFSESARVVVRGGDILQNVVNDYSDLDIKMAKLTAMEHEGDRIIQELIRRLNTSFILPFDREDAFQLAQKLSTTLDYITGIIDRMILYKTGRPNKRVKEMVNVLCEALFLQERALNLLQSLEHNKREILECCEEIRQLERKQDNHYRQGLALLFENEEEPIVIIKWREVYEHIEMAQDYVQDVAELISNICVKYS | not soluble

====

Experiment: soluble on expression in E. coli; label from the status in PepcDB or PDB records
reported.metric: soluble on expression in E. coli

MKLARFLAKGRVHQGVYREGLLLDEAGEAHRPEDVTWLLPFTPGKILGVALNYADHAEELGLSRPEEPALFWKPNTSLLPHKGVVLYPKGARFVHYEVELAVVVGRPMKRVRAKDALDYVLGYTIANDLVARDYVTNTFRPPIRAKGRDTFLPLGPFLVVEEVEDPQDLWLRAYVNGELRQEGHTSRMLYSVAELLEFISEFMTLEPYDVLLTGTPKGISQVRPGDVMRLEIEGLGALENPIEEEP | soluble
MKDPLLNSLIYVSRYYGLANSPEALVNGLPLSDGKLTPFLLPRAAERAGLVAKENRAELEKISSLILPAILVLKGGDSCVLNSINMETREAEVTTLESGMVPISIPLEDLLEQYTGRYFLVKKQFR | soluble

====

Experiment: soluble on expression in E. coli; label from the status in PepcDB or PDB records
reported.metric: soluble on expression in E. coli

MGSDKIHHHHHHTYDYFEDETNYQVFVPEVLNKTVSDCRVLVYNDAGTLVGARYATSPWDKDPRMEAGLFSFRLTPGEYKVYCYTNTDSLTFVDGQHLDASAFILKSSSTGPNRYVQPSDILFQKFVPAIVHPGILQTDTAALERYTGRITVRFKKFPGDVSHIKKVQLLAEGAPVMQYLKNDTLTGRLTPEDKMFHFGTLPVQEKADVLEVDHRFIPSVENEPMRLNYTFLDENGAVVNHLPVEVTERETGLPLRLLHGKRIIIEIESYTVIKISVVGWNEDIESGDTDME | not soluble
MALNDNPIPKSVPLHPKSGKYFHNLHARDLSNIYQQCYKQIDETINQLVDSTSPSTIGIEEQVADITSTYKLLSTYESESNSFDEHIKDLKKNFKQSSDACPQIDLSTWDKYRTGELTAPKLSELYLNMPTPEPATMVNNTDTLKILKVLPYIWNDPTCVIPDLQNPADEDDLQIEGGKIELTCPITCKPYEAPLISRKCNHVFDRDGIQNYLQGYTTRDCPQAACSQVVSMRDFVRDPIMELRCKIAKMKESQEQDKRSSQAIDVL | soluble
MAHHHHHHMSSTNPSGCAGLVAASVTTAASTGTTAAATLAARSPTPPSVPASNSNNSGPGAAVASAPARWRIPSFRPQEYLRGYLFGGVGMGVPELQQYVGKVEPMIREMLEHTQQVHSIHSLRSHFQKSDEPGDEEVVLRWPSHLLQFMEFYNTTRALEDPENQDAGVKEAYLGLMRRLYYTEPRRRDCIPTKYLDPRSLLLVRMWWSMDAAQRKQWPLSLMDHKALNVIQIKDRYLCSYVMTAMQAKQYLMRLVARPEMRAMIDQWRRERNDGSTGAGSPQRSKL | soluble
MRTIVFDVDDTLYDQQQPFRNAMTKIFPNVATEDMHELYLRFRHHSDETFPKVLANEWSLDFMRFFRMNETLKDLNYPGISQEEGKIFQQVYEEELDNITMHPEVTKLLDTLQEKEIPMGIITNGPTDHQFKKVKQLNIEKWVPSQNIIISQSTGFQKPEKEIFDLACNQFCMEPEHTLYVGDSYDNDIVGARNGGWHSLWFNHRSRELPSCQPASHLAEVTCFTELCPTVEKLFNL | not soluble
GEITSAYFVCREATLQKLAAMQSIDSEQKLSALFEGSSQIISLFDRDSRFVWYNKAAYDKSIFLFGKFLCVGERFDSYLKEQYREGFNANFERVLKGEIVSYTREYTYQDKPFFLEIMLQPVYQKDELVGVSLIGNN | not soluble

Exercise: soluble on expression in E. coli lookup needed for MSLAVDTSGEFMRHLYIEEGRTVCASATSRNRRPTSESPHSDDVVVVEGMLRGRPETRVHAMFDGFQGRHSAMWLAQNVMNYLNDLRDVNEEEITRQFERMDGDLRAANLPGGSSALIIFVRYEKKPTEARVVGRQIVPEGAKEFTSVAEALGGPLMPVVAMNFRRDPRAAKGIYTIHVASLGNSRCVLKSGRTAIHLSTPHTASSHKERHRVQAAGGVFTTVNGELLLGGVVPMTRAFGSFDFKKGGQGKLQQDLVSAVPDVTTFFAYPGDDIVAGTAGAFAHFRSHAAIAAAIALYPVSPETVLDAAKAMVVNAKRRKVTKNISTFVRHLPESRTRSQKMLEGTSGENGEEDFSIDRTNELTQALQAGFFSFLLYYEGHHHHHH , thanks.
Key: soluble

====

Test: soluble on expression in E. coli; label from the status in PepcDB or PDB records
reported.metric: soluble on expression in E. coli

For orientation, consider the following solved cases.
MSLTTVLGIETSCDETGVGIARLDPDGTVTLLADEVASSVDEHVRFGGVVPEIASRAHLEALGPAMRRALAAAGLKQPDIVAATIGPGLAGALLVGVAAAKAYSAAWGVPFYAVNHLGGHLAADVYEHGPLPECVALLVSGGHTHLLHVRSLGEPIIELGSTVDDAAGEAYDKVARLLGLGYPGGKALDDLARTGDRDAIVFPRGMSGPADDRYAFSFSGLKTAVARYVESHAADPGFRTADIAAGFQEAVADVLTMKAVRAATALGVSTLLIAGGVAANSRLRELATQRCGEAGRTLRIPSPRLCTDNGAMIAAFAAQLVAAGAPPSPLDVPSDPGLPVMQGQVEGHHHHHH | soluble
DPTAQSLQDISDEQVLVLFEQMLVDMNLNEEKQQPLREKDIVIKREMVSQYLHTSKAGMNQKESSRSAMMYIQELRSGLRDMHLLSCLESLRVSLTSHPVSWVQTFGAEGLASLLDILKRLHDEKEETSGNYDSRNQHEIIRCLKAFMNNKFGIKTMLETEEGILLLVRAMDPAVPNMMIDAAKLLSALCILPQPEDMNERVLEAMTERAEMDEVERFQPLLDGLKSGTSIALKVGCLQLINALITPAEELDFRVHIRSELMRLGLHQVLQELREIENEDMKVQLCVFDEQGDEDFFDLKGRLDDIRMEMDDFGEVFQIILNTVKDSKAEPHFLSILQHLLLVRNDYEARPQYYKLIEECVSQIVLHKNGTDPDFKCRHLQID | soluble
MGSDKIHHHHHHMEHLPEQYRQLFPTLQTHTMLASCSQSALAEPVSRAIQDYYDSLLYKGTNWKEAIEKTEFARNEFAKLIGAEPDEVAIVPSVSDALVSVASSLTAFGKKHVVYTDMDFPAVPHVWQAHSDYTVSVIPSIDGVLPLEQYETHISDETVLTCVPHVHYRDGYVQDIKAIAEISQRKGSLLFVDAYQSAGHIPIDVKEWGVDMLAAGTRKYLLGIPGVAFLYVRKELADALKPKASAWFGRESGFDGAYAKVARRFQTGTPAFISVYAAAAALSLLNHIGVSHIRDHVKTICADAVQYAAEKGLQLAAAQGGIQPGMVAIRDERASETAGLLKKKKVICAPRENVIRLAPHFYNTKEEMRHAIDEIAAKTIHK | not soluble
MGSDKIHHHHHHMKNLLDLSYEELVTEITNLGLERYRADQILDWVFDKKVNNFDEMTNLSKKHRALLKEHFSISFLKLLDKKVSRIDGTTKFLWELEDGNTIESVMLFHPDRITACISTQVGCPVKCIFCATGMSGFVRNLTTGEIVAQILSMEKEEKKKIGNVVYMGMGEPLLNYENTIKSIRILNHKKMGNIGIRRITISTVGIPDRIIQLAEEGLDVKLALSLHAPTNFKRDQLVPLNKKYSIEEILNAVKIYQRKTGNRVTIEYVLIRGINDEISDAKKLAEILRNMKVFVNLIPVNPTVEGLRRPSRERLLTFKRILLENGIEAEIRREKGTDIEAACGQLRLKRIKSRS | not soluble
MGSDKIHHHHHHMNAALWISKTGLDAQTKDIAVISNNLANASTIGFKKSRAVFEDLLYQNINQPGGRTAQDTEAPSGLMLGAGTKVVATQKIHTQGDMITSDNALDLMIQGEGFFEIQMPDGSSAYSRNGQFTMDDEGNMVTPGAGYMIQPQVTIPEDALSIIVSQDGEVSVTLQGQPDPAVVGQINLINFVNPTGLQPIGQNLYTETAVSGAPQEGVPGLEGYGMLVQGALETSNVNTTEELVNLIESQRVYEMNSKVISAVDEMLSYINQQM | not soluble
MGSDKIHHHHHHMMKQIIAMAGGGFSMEPDNLSLDQYILNQSKREQHRICFLPTASGDSQNYIQRFYHAFQTLDCVPSHLSLFKPPSSDLVSFVMEMDVIYVGGGNTRNLLVLWKEWGLDHILREAWKNGVVVAGISAGAICWFEEGVTDSAGPLTSLKSLGFLQGSFCPHYDGEKDRRPAYHQLISNKFLCSGYAADDGAALHFINDQLFQTVSSRSGAKAYRVMMAEHEIAEIPLPVKYVRVKLAEYYLYSSFFQIDFMIR | not soluble
MDQERARKRGITMGKQEFDGMSRISGLLTPELRATIEAVLAKLAAPGACNPDDQTPLVDDTPDADAVRRDTRSQAQRHHDGLLAGLRGLLASGELGQHRGLPVTVVVSTTLKELEAATGKGVTGGGSRVPMSDLIRMASNAHHYLALFDGAKPLALYHTKRLASPAQRIMLYAKDRGCSLEHHHHHH | soluble
MSLSVQREDVDIKLIAIDMDGTLLNDEQLISDENRKAIREAEDKGVYVVISTGRTLMTCRELAESLKLSSFLITANGSEIWDSNFNLVERKLLHTDHIQMMWDLRNKHNTNFWASTVNKVWRGEFPENITDHEWLKFGFDIEDDDIRNEVLEELRKTKSSEITNSSPTNIEVNALGINKAAAPCQGYGKLGFTMENVMAMGDSLNDIAMIKEAGLGVAMGNAQDIVKETADYITDTNIEDGVAKAIRHWVLEGHHHHHH | soluble
RGSGWFAGFPVYSWFFGRDGLWMALAANMVGLAGLTYEHTNMLLKYSDDGRIPHEIGLADDGDQGYTIGETKFNTMYMSIDSSPLWLLASASMENWDRSRFEERHLKKVFDFIASCDTDGDGLIENDFRRGLIGWPETWANIRNGKTVDVNALWIEVLRIFGYRFGYDEYQKIRDRYMSTFFAGANSVDFVDMEYHEIRSAMQFVPGIFMRNEAIRSRIKDLSAGMMTPWGIRSMSVYDPMYDGGYHTGTVWPLMTGWFVIAAYKNGLPDLAFNQMRTFVDLAFSADDPGRINETYDAMMPQPTGQFAQGWSSSMLLLSVLQGMLNIDPLS | not soluble

Kindly review the next sequence as well.
Exercise: Given MNDDRATAFNALKNKTVCVQGDGNSRQFYHALVEILSNHSSAIPVNKNGNDFCNAPFAQCPQDTYYFDLVDKSDNLSVKLYWRWAPEFSDIECPMKVPSGFTPGSNYSFPSGPDTLSCDINIMDAGQWELFEKDANVTTAGYSQGVSNLSKCFSSDKSAKYFWIAAYALTPEQLQIHLPYNNTDVERINEVATQGLNSTACVLNGYDVTVNAFNDTKEATTDGIHYLGWINEQVVQLFFNAVTNSSAPTVPSSNVSVTSPNVQLGQVPNLNPSTTNSFLPVQTIVTVPSSSATSASSGLNFGGSSQGGGSGIPQL , state its recorded soluble on expression in E. coli.
Key: not soluble

Numbers sourced from the DeepSol protein solubility set.
